- Target of assay: T1, P1142_AMBCA (Amblyomma cajennense, UniProt A0A023FBW4 26-97)
- T1 sequence: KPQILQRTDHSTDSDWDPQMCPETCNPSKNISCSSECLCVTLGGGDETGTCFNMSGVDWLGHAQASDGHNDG
- Measurement notes: BLI [Cont.]
Endpoint label: Kd (nM)
Numeric only. Scale: nM

Q: Recorded Kd of CXCL4_HUMAN (ligand) EAEEDGDLQCLCVKTTSQVRPRHITSLEVIKAGPHCPTAQLIATLKNGRKICLDLQAPLYKKIIKKLLES , please.
Result: 381
